Sourced from ChEMBL document CHEMBL3272210

- Organism: Rattus norvegicus
- protocolSummary: Inhibition of rat hepatoma ribonucleotide reductase using ATP
recordedEndpoint: ID50 (µM)

Some entries whose results are on file:
> print(dat)
                 compound  measurednumber
1  NC(=O)NO [HYDROXYUREA]             110
2            CCN(O)C(N)=O             170
3             CN(O)C(N)=O             100

I: CCCNC(=O)NO
II: CC(C)NC(=O)NO
Would you let me know which has the greater ID50 value, I or II ? Output the label that corresponds to your choice.
II
(II: 800 µM, I: 340 µM)
